A collection of compounds and their measured Activity
- TARGET SYSTEM: Metabotropic glutamate receptor 5 (Rattus norvegicus)
- Sequence (P31424 whole entry): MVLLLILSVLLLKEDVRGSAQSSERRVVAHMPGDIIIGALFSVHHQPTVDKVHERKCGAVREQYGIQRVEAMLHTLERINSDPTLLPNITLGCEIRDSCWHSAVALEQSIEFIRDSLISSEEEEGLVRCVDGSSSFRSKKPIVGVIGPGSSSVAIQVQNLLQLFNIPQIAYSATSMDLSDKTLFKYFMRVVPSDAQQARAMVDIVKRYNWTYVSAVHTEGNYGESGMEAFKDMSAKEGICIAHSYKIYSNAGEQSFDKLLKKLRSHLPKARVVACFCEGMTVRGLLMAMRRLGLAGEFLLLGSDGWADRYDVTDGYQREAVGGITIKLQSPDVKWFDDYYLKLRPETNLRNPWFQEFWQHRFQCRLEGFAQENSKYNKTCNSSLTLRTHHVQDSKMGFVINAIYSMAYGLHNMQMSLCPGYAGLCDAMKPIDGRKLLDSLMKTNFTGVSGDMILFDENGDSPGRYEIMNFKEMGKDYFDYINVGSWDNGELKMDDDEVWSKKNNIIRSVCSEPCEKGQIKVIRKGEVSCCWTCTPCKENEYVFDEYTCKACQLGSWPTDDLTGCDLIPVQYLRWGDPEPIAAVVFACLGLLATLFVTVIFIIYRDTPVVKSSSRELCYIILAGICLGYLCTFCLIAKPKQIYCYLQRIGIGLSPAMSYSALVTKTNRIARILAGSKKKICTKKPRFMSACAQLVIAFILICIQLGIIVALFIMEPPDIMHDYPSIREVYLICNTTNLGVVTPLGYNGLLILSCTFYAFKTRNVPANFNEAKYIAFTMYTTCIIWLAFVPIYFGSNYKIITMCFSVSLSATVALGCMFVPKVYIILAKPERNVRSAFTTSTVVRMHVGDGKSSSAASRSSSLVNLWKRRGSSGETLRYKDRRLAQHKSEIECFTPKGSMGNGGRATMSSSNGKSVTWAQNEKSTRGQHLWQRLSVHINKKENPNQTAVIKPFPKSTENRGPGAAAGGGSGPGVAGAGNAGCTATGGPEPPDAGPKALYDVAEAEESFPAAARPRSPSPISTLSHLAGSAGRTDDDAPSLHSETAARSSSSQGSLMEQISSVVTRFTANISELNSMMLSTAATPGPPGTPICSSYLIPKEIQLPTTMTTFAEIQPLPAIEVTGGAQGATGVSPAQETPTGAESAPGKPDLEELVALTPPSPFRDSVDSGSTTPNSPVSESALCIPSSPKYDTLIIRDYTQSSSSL
- EXPERIMENT SUMMARY: Displacement of [3H]MPEP from mGluR5 in rat brain membrane at 10 uM
- Format: cell membranes

>  <SMILES STRUCTURE>
COc1ccnc(-c2ccc3sc(C)nc3c2)n1

>  <TARGET SYSTEM>
Metabotropic glutamate receptor 5 (Rattus norvegicus)

>  <COMPARATOR>
=

>  <Activity (%)>
39

$$$$
>  <SMILES STRUCTURE>
Cc1ccc2nc(-c3ccccc3)n(C)c2n1

>  <TARGET SYSTEM>
Metabotropic glutamate receptor 5 (Rattus norvegicus)

>  <COMPARATOR>
<

>  <Activity (%)>
1

$$$$
>  <SMILES STRUCTURE>
Cc1cccc(-c2ccc3sc(C)nc3c2)n1

>  <TARGET SYSTEM>
Metabotropic glutamate receptor 5 (Rattus norvegicus)

>  <COMPARATOR>
=

>  <Activity (%)>
17

$$$$
>  <SMILES STRUCTURE>
Cc1ccc2ccc(-c3ccccc3)cc2n1

>  <TARGET SYSTEM>
Metabotropic glutamate receptor 5 (Rattus norvegicus)

>  <COMPARATOR>
=

>  <Activity (%)>
50

$$$$
>  <SMILES STRUCTURE>
Cc1ccc2ccc(-c3cccs3)cc2n1

>  <TARGET SYSTEM>
Metabotropic glutamate receptor 5 (Rattus norvegicus)

>  <COMPARATOR>
<

>  <Activity (%)>
1

$$$$
>  <SMILES STRUCTURE>
Cc1nc2nc(-c3ccccc3)sc2cc1-c1cccc(Cl)c1

>  <TARGET SYSTEM>
Metabotropic glutamate receptor 5 (Rattus norvegicus)

>  <COMPARATOR>
=

>  <Activity (%)>
1

$$$$
>  <SMILES STRUCTURE>
Cc1ccc2ccc(-c3ncc(F)cn3)cc2n1

>  <TARGET SYSTEM>
Metabotropic glutamate receptor 5 (Rattus norvegicus)

>  <COMPARATOR>
>

>  <Activity (%)>
1

$$$$
>  <SMILES STRUCTURE>
Cc1ccc2sc(-c3ccccc3)nc2n1

>  <TARGET SYSTEM>
Metabotropic glutamate receptor 5 (Rattus norvegicus)

>  <COMPARATOR>
=

>  <Activity (%)>
16

$$$$
>  <SMILES STRUCTURE>
COc1cc2sc(-c3ccccc3)nc2nc1C

>  <TARGET SYSTEM>
Metabotropic glutamate receptor 5 (Rattus norvegicus)

>  <COMPARATOR>
<

>  <Activity (%)>
1

$$$$

----------
- TARGET SYSTEM: Metabotropic glutamate receptor 5 (Rattus norvegicus) (UniProt P31424)
- Sequence (P31424 21-1203 limits assumed): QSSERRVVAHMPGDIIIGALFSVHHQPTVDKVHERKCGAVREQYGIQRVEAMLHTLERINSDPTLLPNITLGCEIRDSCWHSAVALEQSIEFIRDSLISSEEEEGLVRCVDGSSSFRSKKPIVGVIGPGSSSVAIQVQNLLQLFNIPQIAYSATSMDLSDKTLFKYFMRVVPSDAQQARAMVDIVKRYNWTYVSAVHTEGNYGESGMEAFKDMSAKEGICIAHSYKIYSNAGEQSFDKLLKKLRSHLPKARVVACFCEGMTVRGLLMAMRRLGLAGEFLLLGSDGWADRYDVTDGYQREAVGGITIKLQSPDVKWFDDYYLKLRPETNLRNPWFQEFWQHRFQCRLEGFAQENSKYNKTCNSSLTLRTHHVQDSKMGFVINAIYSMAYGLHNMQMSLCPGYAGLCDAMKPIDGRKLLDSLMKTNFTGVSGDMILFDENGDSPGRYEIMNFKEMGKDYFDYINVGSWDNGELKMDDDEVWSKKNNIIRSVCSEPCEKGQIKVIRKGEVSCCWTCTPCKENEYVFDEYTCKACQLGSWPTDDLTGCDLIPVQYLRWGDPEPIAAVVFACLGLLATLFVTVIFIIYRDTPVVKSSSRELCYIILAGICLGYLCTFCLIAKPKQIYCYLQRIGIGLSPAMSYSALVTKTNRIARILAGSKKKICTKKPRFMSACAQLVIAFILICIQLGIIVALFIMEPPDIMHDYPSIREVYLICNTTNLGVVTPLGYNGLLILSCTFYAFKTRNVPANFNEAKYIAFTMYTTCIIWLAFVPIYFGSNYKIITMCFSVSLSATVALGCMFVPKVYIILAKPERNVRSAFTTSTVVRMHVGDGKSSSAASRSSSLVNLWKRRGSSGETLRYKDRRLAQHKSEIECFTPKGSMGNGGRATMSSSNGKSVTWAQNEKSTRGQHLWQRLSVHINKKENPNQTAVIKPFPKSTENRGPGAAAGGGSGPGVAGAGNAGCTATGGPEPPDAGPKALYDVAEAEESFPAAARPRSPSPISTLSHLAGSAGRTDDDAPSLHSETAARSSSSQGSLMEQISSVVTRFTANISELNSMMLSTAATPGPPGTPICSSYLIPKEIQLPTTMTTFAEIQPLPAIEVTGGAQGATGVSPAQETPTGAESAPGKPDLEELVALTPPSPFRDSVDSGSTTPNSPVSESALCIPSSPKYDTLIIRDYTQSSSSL
- EXPERIMENT SUMMARY: Displacement of [3H]MPEP from mGluR5 in rat brain membrane at 10 uM
- Format: cell membranes
A collection of molecules and their measured Activity
ENDPOINT LABEL: Activity (%)

>  <SMILES STRUCTURE>
Cc1ccc(-c2ccc3ccc(C)nc3c2)nc1

>  <ENDPOINT LABEL>
Activity

>  <COMPARATOR>
=

>  <QUANTITATIVE RESULT>
9

$$$$
>  <SMILES STRUCTURE>
Cc1ccc2nc(-c3ccccc3)n(CC3CC3)c2n1

>  <ENDPOINT LABEL>
Activity

>  <COMPARATOR>
<

>  <QUANTITATIVE RESULT>
1

$$$$
>  <SMILES STRUCTURE>
Cc1ccc2ccc(-c3ccccn3)cc2n1

>  <ENDPOINT LABEL>
Activity

>  <COMPARATOR>
=

>  <QUANTITATIVE RESULT>
28

$$$$
>  <SMILES STRUCTURE>
Cc1nc2nc(-c3ccccc3)sc2cc1Br

>  <ENDPOINT LABEL>
Activity

>  <COMPARATOR>
=

>  <QUANTITATIVE RESULT>
1

$$$$
>  <SMILES STRUCTURE>
Cc1nc2nc(-c3ccccc3)sc2cc1-c1cccc(C#N)c1

>  <ENDPOINT LABEL>
Activity

>  <COMPARATOR>
=

>  <QUANTITATIVE RESULT>
13

$$$$
>  <SMILES STRUCTURE>
Cc1nc2cc(-c3ncccn3)ccc2s1

>  <ENDPOINT LABEL>
Activity

>  <COMPARATOR>
=

>  <QUANTITATIVE RESULT>
29

$$$$
>  <SMILES STRUCTURE>
Cc1nc2nc(-c3ccccc3)sc2cc1-c1ccc(F)cc1

>  <ENDPOINT LABEL>
Activity

>  <COMPARATOR>
=

>  <QUANTITATIVE RESULT>
3

$$$$

----------
- TARGET SYSTEM: Metabotropic glutamate receptor 5 (Rattus norvegicus)
pKi: −log10 of the molar value.

>  <SMILES STRUCTURE>
Cc1ccc2c(n1)nc(-c1ccccc1)n2Cc1ccccc1

>  <TARGET SYSTEM>
Metabotropic glutamate receptor 5 (Rattus norvegicus)

>  <pKi>
< 5.00

$$$$
>  <SMILES STRUCTURE>
Cc1ccc2ccc(-c3cccc(C#N)c3)cc2n1

>  <TARGET SYSTEM>
Metabotropic glutamate receptor 5 (Rattus norvegicus)

>  <pKi>
6.96

$$$$
>  <SMILES STRUCTURE>
Cc1nc2nc(-c3ccccc3)sc2cc1-c1cccs1

>  <TARGET SYSTEM>
Metabotropic glutamate receptor 5 (Rattus norvegicus)

>  <pKi>
< 5.00

$$$$
>  <SMILES STRUCTURE>
Cc1ccc2[nH]c(-c3ccccc3)nc2n1

>  <TARGET SYSTEM>
Metabotropic glutamate receptor 5 (Rattus norvegicus)

>  <pKi>
< 5.00

$$$$
>  <SMILES STRUCTURE>
Cc1ccc2ccc(-c3ncccn3)cc2n1

>  <TARGET SYSTEM>
Metabotropic glutamate receptor 5 (Rattus norvegicus)

>  <pKi>
< 4.70

$$$$
>  <SMILES STRUCTURE>
Cc1cc(C)nc(-c2ccc3ccc(C)nc3c2)n1

>  <TARGET SYSTEM>
Metabotropic glutamate receptor 5 (Rattus norvegicus)

>  <pKi>
5.68

$$$$

----------
- TARGET SYSTEM: UniProt P31424
- EXPERIMENT SUMMARY: Displacement of [3H]MPEP from mGluR5 in rat brain membrane
pIC50: −log10 of the molar value.
A collection of compounds and their measured pIC50
ENDPOINT LABEL: pIC50

>  <SMILES STRUCTURE>
Cc1nc2cc(-c3cccc(Cl)c3)ccc2s1

>  <QUANTITATIVE RESULT>
4.36

$$$$
>  <SMILES STRUCTURE>
COc1cccc(-c2ccc3sc(C)nc3c2)c1

>  <QUANTITATIVE RESULT>
4.37

$$$$
>  <SMILES STRUCTURE>
Cc1nc2nc(-c3ccccc3)sc2cc1-c1ccccc1

>  <QUANTITATIVE RESULT>
4.48

$$$$
